- TEST SYSTEM: T1, recombinant human PD-L1 expressed with a C-terminal myc-myc-hexahistidine tag (hPD-L1-MMH) (human)
- T1 construct: Monomeric PD-L1 reagent; also called hPD-L1-MMH Monomer
- T1 sequence (chain, as listed by the source limits assumed): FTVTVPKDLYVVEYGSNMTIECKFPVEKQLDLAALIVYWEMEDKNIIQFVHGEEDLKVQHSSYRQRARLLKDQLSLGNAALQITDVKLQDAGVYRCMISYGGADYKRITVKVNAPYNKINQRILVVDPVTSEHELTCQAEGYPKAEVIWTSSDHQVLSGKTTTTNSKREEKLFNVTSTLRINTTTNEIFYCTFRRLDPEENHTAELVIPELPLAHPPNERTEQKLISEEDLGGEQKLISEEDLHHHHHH
- PROTOCOL NOTES: SPR, captured mAb, 25 C
Item-by-item account of kon
Respond numerically; units are M⁻¹ s⁻¹ and should not be typed.

In the examples that follow, each entry is paired with its recorded kon.
{"BINDER": "H1H9336P (antibody, human IgG1, V domains shown) VH: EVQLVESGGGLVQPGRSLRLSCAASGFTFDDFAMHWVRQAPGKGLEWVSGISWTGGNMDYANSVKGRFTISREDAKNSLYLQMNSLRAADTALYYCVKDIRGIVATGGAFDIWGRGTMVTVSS VL: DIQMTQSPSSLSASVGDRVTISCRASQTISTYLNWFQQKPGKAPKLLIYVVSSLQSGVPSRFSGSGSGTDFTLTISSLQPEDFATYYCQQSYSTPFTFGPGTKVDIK", "VALUE TYPE": "kon", "OBSERVED VALUE": 792000}
{"BINDER": "H2aM8317N (antibody, mouse IgG2, V domains shown, also called H2M8317N) VH: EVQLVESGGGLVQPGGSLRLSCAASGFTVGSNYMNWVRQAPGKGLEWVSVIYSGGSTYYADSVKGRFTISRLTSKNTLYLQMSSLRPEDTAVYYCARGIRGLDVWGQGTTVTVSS VL: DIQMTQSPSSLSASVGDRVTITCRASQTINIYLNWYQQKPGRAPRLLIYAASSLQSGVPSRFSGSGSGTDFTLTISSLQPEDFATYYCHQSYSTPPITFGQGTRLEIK", "VALUE TYPE": "kon", "OBSERVED VALUE": 94000}

Here's the next entry for you.
kon for H2aM8310N (antibody, mouse IgG2, V domains shown, also called H2M8310N) VH: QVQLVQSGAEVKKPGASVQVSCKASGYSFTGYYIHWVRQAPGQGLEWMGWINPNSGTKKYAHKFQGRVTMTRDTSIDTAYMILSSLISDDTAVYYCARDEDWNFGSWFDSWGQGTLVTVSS VL: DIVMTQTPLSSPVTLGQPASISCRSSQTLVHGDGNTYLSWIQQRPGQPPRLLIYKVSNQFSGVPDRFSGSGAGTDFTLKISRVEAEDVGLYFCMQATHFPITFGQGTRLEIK is 88600

Hello, the source for this data is patent US20210380702A1, in case you need it.
